tested on: SK-MEL-2 melanoma; experiment: NCI tumour cell line growth inhibition, 48 h
Assign class by TGI: not lower than 40 µM means T; lower than 40 µM means F.

Q) Could you verify whether the entry CCCCCCCCCCCCCP(=O)(NCC(N)=O)OCC (centres undefined) shows TGI of no less than 40 µM?
A) F

Q) Could you verify whether the entry COc1cc(OC)cc(-c2n/c(=C\c3c(O)[nH]c4ccc(Cl)cc34)cc3c2=Nc2ccccc2-3)c1 shows TGI of no less than 40 µM?
A) T

Q) Could you verify whether the entry O=C(NN1C(=O)CSC1c1ccc(F)cc1)C(O)c1ccccc1 (centres undefined) shows TGI of no less than 40 µM?
A) T

Q) Could you verify whether the entry O=NN(CCCl)C(=O)NC1CCC(=O)NC1=O (centres undefined) shows TGI of no less than 40 µM?
A) T

Q) Could you verify whether the entry O=C1CCC(N2C(=O)c3cccc(NCCCC4CCN(CCNC(=O)c5cc6c(o5)C(=O)c5ccccc5C6=O)CC4)c3C2=O)C(=O)N1 (centres undefined) shows TGI of no less than 40 µM?
A) F

Q) Could you verify whether the entry COc1cc([C@H]2Oc3c(OC)cc(CCCO)cc3[C@@H]2CO)ccc1O shows TGI of no less than 40 µM?
A) T

Q) Could you verify whether the entry CCN1CCCC(Nc2cc(C)nc(/N=C(/N)Nc3ccc(Cl)c(Cl)c3)n2)C1 (centres undefined) shows TGI of no less than 40 µM?
A) F

Q) Could you verify whether the entry O=S1(=O)C(c2ccccc2)=C(O)c2ccccc21 shows TGI of no less than 40 µM?
A) T

Q) Could you verify whether the entry CCN(CC)C(=O)COc1cc2c(O)c3c(O)c(C)c4c(c13)C(=O)C(C)(OC=CC(OC)C(C)C(OC(C)=O)C(C)C(O)C(C)C(O)C(C)C=CC=C(C)C(=O)N2)O4 (centres undefined) shows TGI of no less than 40 µM?
A) T
